molecular target: CDK2/cyclinE (Homo sapiens, UniProt P24941); experiment: Caliper LabChip kinase enzymatic assay, CDK2/cyclinE; assay type: biochemical; details: Table 2, class symbols; read-out: CDK2/CycE IC50
Exercise: for every item that follows, state its recorded IC50.

Which IC50 value belongs to `CC(C)CN1CCN(c2ccc(Nc3ncc4cc5n(c4n3)C3(CCCC3)CNC5=O)nc2)CC1` ? 1 to 100 µM

Which IC50 value belongs to CC(C)C1CNC(=O)c2cc3cnc(Nc4ccc(N5CCNCC5)cn4)nc3n21 (stereo not drawn) ? 1 to 100 µM

Which IC50 value belongs to `O=C1NCC2(CCCC2)n2c1cc1cnc(Nc3ccc(N4CCOCC4)cn3)nc12` ? 1 to 100 µM
